For each of the compounds below, state its melting point.

Qu. Which measured melting point value corresponds to `FC(F)(F)CCN1CCN(Cc2ccc3c(c2)-c2[nH]nc(-c4ccsc4)c2C3)CC1` ?
Ans. 195 to 200 °C

Qu. Tell me the measured melting point of `COc1ccc(-c2[nH]nc3c2C(=O)c2c(NC(=O)Cc4ccc(N=[N+]=[N-])cc4)cccc2-3)cc1` , please.
Ans. > 300 °C

Qu. // lookup melting point for `COC(=O)c1ccccc1S(=O)(=O)NC(=O)Nc1ncc(C)n(C)c1=O`
Ans. 192 to 193 °C

Qu. Could you tell me which melting point is on file for `Cc1cc(C#N)cc(C(=O)NCC2CC2)c1NC(=O)c1cc(C(F)(F)F)nn1-c1ncccc1Cl` ?
Ans. 235 to 236 °C

Qu. Bench note: what melting point did CCOC(=O)C1=Cc2cc(Cl)cc(CO)c2OC1C(F)(F)F (stereo not given) show?
Ans. 98 to 100 °C

Qu. Report melting point for `COc1ccc(C(=O)NCCN(C)C)cc1` please.
Ans. 53 to 54 °C

Qu. Which value of melting point has been reported for `COc1ccc(-c2cn(C)cc(-c3ccccc3)c2=O)cc1` in the records?
Ans. 165 °C

Qu. // melting point lookup, key: CCCC1=C(C#N)C(c2ccccc2Cl)c2c(n[nH]c2-c2ccco2)N1 (stereo not given)
Ans. 253 °C

Qu. // returns reported melting point for input `COC(=O)C(=O)c1nsc(NC(=O)OCc2ccccc2)n1`
Ans. 144 to 147 °C

Qu. Give the measured melting point of `CCCCOC(=O)c1cc(OCc2ccccc2)c2c(Cl)cc(Cl)cc2n1` .
Ans. 130 to 132 °C

Qu. So what does the record say about melting point for `CC(=O)N(C)c1cccnc1S(N)(=O)=O` ?
Ans. 181 to 185 °C

Qu. Fill in: melting point of `CCOC(=O)C(NC(C)=O)(C(=O)OCC)C1=Nc2ccc(Cl)cc2C(c2ccccc2Cl)=NC1` is ___
Ans. 153 to 155 °C

Qu. Would you kindly share the measured melting point for `COc1ccc(-c2cnc(NC(=O)Cc3ccccc3)c(Cc3ccccc3)n2)cc1` ?
Ans. 198 to 202 °C

Qu. I have this compound here, CCC1(CO)COC2(CC(c3ccccc3)SC(c3ccccc3)C2)OC1 (stereo not given) , and I need its recorded melting point.
Ans. 128 °C

Qu. Fill in: melting point of `CCCCCCCCCCCCNC(=O)c1cc(Br)c(OCCn2cnnn2)c(-c2cccc(OC)c2)c1` is ___
Ans. 100 to 101 °C

Qu. Consider the compound COc1cc(C)c(Nc2nnc3n2C(c2ccc(F)cc2)CSC3)cc1OC (stereo not given) and give its measured melting point.
Ans. 165 to 166 °C

Qu. Reported melting point for `CCn1nc2c(N)nc3ccccc3c2c1CC(C)(C)NS(C)(=O)=O` : what is it?
Ans. 229 to 230 °C

Qu. Quick one: melting point for CCCCCCCCNC(=O)C=CSC(C(=O)c1ccccc1)C(=O)c1cccn1C (stereo not given) ?
Ans. 131 to 132 °C

Qu. // returns reported melting point for input CN1Cc2cc(C(c3ccccc3)n3ccnc3)ccc2NC1=O (stereo not given)
Ans. 174 °C

Qu. Look up melting point for this compound: CC1(C#CC2(C(F)(F)F)C=NC(=O)Nc3ccc(Cl)cc32)CC1 (stereo not given)
Ans. 196 to 198 °C
